target: cAMP and cAMP-inhibited cGMP 3',5'-cyclic phosphodiesterase 10A (Rattus norvegicus); assay: Inhibition of recombinant rat PDE10A expressed in Sf9 cells using [3H]cAMP after 30 mins by scintillation proximity assay
pIC50: −log10 of the molar value.
measured.parameter: pIC50

Some solved cases for reference:
| compound | pIC50 |
| --- | --- |
| COc1cc2ncnc(N(C)C)c2cc1OCCc1ccc2ccccc2n1 | 7.85 |
| CCCOc1cc2c(N3CCCC(c4ccccc4)C3)ncnc2cc1OC (centres undefined) | 5.98 |
| COc1cc2ncnc(N3CCCC(c4ccccc4)C3)c2cc1OCCc1ccccc1 (centres undefined) | 5.78 |
| COc1cc2ncn(C)c(=O)c2cc1OCCc1ccc2ccccc2n1 | 7.92 |

[I] COc1cc2ncnc(N3CCCC(c4ccccc4)C3)c2cc1OCCCc1nc2ccccc2n1C (centres undefined)
[II] COc1cc2ncnc(-c3cccnc3)c2cc1OCCc1ccc2ccccc2n1
[III] COc1cc2ncnc(N3CCCC(c4ccccc4)C3)c2cc1OCCc1cccnc1 (centres undefined)
[IV] COc1cc2ncnc(N3CCCC(c4ccccc4)C3)c2cc1OC (racemic)
[V] c1ccc2nc(CCOc3ccc4ccncc4c3)ccc2c1
Req: Endpoint returns the given compounds ordered by ascending pIC50. Form entry: ranked labels (order as requested).
Resp: III, V, IV, I, II

====

tested on: human MDR; test: Apparent permeability across apical to basolateral side in dog MDCK cells expressing human MDR; type: ADME, cell-based, Canis lupus familiaris; details: MDCK-MDR1
measured.parameter: Papp A→B (×10⁻⁶ cm/s)

[1] COc1cc2ncnc(N(C)C)c2cc1OCCc1ccc2ccccc2n1
[2] COc1cc2ncnc(-c3cccnc3)c2cc1OCCc1ccc2ccccc2n1
[3] COc1cc2cncnc2cc1OCCc1ccc2ccccc2n1
Req: Sort the items above on Papp A→B, descending. Form entry: ranked labels (order as requested).
Resp: 1, 3, 2

====

test: Selectivity ratio of IC50 for PDE3A to IC50 for rat PDE10A
measured.parameter: Ratio IC50

| compound | Ratio IC50 |
| --- | --- |
| COc1cc2ncnc(N3CCCC(c4ccccc4)C3)c2cc1OC (centres undefined) | < 0.1 |
| COc1cc2ncnc(N3CCCC(c4ccccc4)C3)c2cc1OCCc1ccccn1 (racemic) | > 5 |
| CCCOc1cc2c(N3CCCC(c4ccccc4)C3)ncnc2cc1OC (centres undefined) | < 0.1 |

Req: Look at this compound and give its reported Ratio IC50. COc1cc2ncnc(N3CCCC(c4ccccc4)C3)c2cc1OCCc1ccc2ccccc2n1 (centres undefined)
Resp: > 100

====

experiment: Intrinsic clearance in rat liver microsomes; format: ADME, Microsome
measured.parameter: CLint scaled (mL/min/kg)
Quick note: give the figure in mL/min/kg, leave out the unit.

Req: Look at this compound and give its reported CLint scaled. "COc1cc2cncnc2cc1OCCc1ccc2ccccc2n1"
Resp: 183

====

experiment: Intrinsic clearance in human liver microsomes; assay type: ADME, Microsome
measured.parameter: CLint scaled (mL/min/kg)

| molecule | readout.unit | numeric.readout |
| --- | --- | --- |
| COc1cc2ncnc(N(C)C)c2cc1OCCc1ccc2ccccc2n1 | mL/min/kg | 178 |

[A] COc1cc2ncnc(N3CCCC(c4ccccc4)C3)c2cc1OC (stereo unspecified)
[B] COc1cc2ncn(C)c(=O)c2cc1OCCc1ccc2ccccc2n1
Req: For the pair A and B , which entry has the numerically smaller recorded CLint scaled? Select an item and report its label.
Resp: A

====

target: cAMP and cAMP-inhibited cGMP 3',5'-cyclic phosphodiesterase 10A (Rattus norvegicus, UniProt Q9QYJ6); assay: Inhibition of recombinant rat PDE10A expressed in Sf9 cells using [3H]cAMP after 30 mins by scintillation proximity assay
Sequence (Q9QYJ6 whole entry): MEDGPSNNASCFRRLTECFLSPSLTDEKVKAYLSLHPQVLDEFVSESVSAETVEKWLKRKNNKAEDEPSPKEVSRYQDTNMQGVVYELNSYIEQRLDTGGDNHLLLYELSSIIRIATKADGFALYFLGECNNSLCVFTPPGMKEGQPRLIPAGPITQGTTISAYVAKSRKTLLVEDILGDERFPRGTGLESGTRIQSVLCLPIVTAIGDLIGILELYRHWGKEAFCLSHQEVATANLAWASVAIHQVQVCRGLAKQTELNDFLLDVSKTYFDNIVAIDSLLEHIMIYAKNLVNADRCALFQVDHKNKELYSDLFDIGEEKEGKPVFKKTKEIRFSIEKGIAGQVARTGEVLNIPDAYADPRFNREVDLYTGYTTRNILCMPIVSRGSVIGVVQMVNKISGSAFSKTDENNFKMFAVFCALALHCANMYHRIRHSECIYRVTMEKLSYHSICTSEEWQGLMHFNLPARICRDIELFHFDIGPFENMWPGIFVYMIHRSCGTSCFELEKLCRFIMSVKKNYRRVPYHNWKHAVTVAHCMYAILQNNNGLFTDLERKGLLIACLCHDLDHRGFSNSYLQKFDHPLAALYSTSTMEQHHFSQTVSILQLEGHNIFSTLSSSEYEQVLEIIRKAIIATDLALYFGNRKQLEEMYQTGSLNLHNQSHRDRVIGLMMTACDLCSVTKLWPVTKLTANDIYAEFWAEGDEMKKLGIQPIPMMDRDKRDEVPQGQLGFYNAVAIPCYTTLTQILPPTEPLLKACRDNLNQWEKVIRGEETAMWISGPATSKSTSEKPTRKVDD
measured.parameter: IC50

Some solved cases for reference:
| molecule | result |
| --- | --- |
| COc1cc2ncnc(N3CCCC(c4ccccc4)C3)c2cc1OCc1cccnc1 (stereo not given) | > 3.2 µM |
| COc1cc2ncnc(N3CCCC(c4ccccc4)C3)c2cc1OCCc1ccncc1 (stereo not given) | > 3.2 µM |

Req: Look at this molecule and give its reported IC50. COc1cc2ncnc(N3CCCC(c4ccccc4)C3)c2cc1OCc1ccccn1 (stereo not given)
Resp: > 3.2 µM

Req: What do you get for COc1cc2ncnc(N3CCCC(c4ccccc4)C3)c2cc1OCc1ccncc1 (stereo not given) ?
Resp: > 3.2 µM

Req: What do you get for COc1cc2ncnc(N3CCCC(c4ccccc4)C3)c2cc1OCc1ccc2ccccc2n1 (stereo not given) ?
Resp: > 3.2 µM

====

Known CLint scaled of a selection of compounds
assay: Intrinsic clearance in human liver microsomes; type: ADME, Microsome

Some solved cases for reference:
| compound | CLint scaled |
| --- | --- |
| COc1cc2ncnc(N3CCCC(c4ccccc4)C3)c2cc1OCCc1ccc2ccccc2n1 (stereo not drawn) | > 19 mL/min/kg |
| COc1cc2cncnc2cc1OCCc1ccc2ccccc2n1 | < 7 mL/min/kg |

As a next step, examine the compound that follows.
Req: Look at this compound and give its reported CLint scaled. "COc1cc2ncnc(-c3cccnc3)c2cc1OCCc1ccc2ccccc2n1"
Resp: < 8 mL/min/kg
